# procedureSummary: molar heat capacity at constant pressure
# conditionSet: 298.15 K; 101.33 kPa; Liquid; High-precision drop calorimeter
Give measured molar heat capacity at constant pressure for each item. Keep answers brief.
Answers are plain numbers, in J/K/mol.

# annotated cases, reported molar heat capacity at constant pressure shown
INSERT INTO results (smiles, readoutkind, resultunit, endpointvalue) VALUES
  ('CCCn1cc[n+](C)c1.O=S(=O)([N-]S(=O)(=O)C(F)(F)F)C(F)(F)F', 'molar heat capacity at constant pressure', 'J/K/mol', 534.9),
  ('CCCCCCCCn1cc[n+](C)c1.O=S(=O)([N-]S(=O)(=O)C(F)(F)F)C(F)(F)F', 'molar heat capacity at constant pressure', 'J/K/mol', 690.2),
  ('CCCCCCCCCCn1cc[n+](C)c1.O=S(=O)([N-]S(=O)(=O)C(F)(F)F)C(F)(F)F', 'molar heat capacity at constant pressure', 'J/K/mol', 754.5);

Lab note: each molecule below needs its molar heat capacity at constant pressure filled in.
1. CCn1cc[n+](C)c1.O=S(=O)([N-]S(=O)(=O)C(F)(F)F)C(F)(F)F
2. CCCCCn1cc[n+](C)c1.O=S(=O)([N-]S(=O)(=O)C(F)(F)F)C(F)(F)F
3. CCCCCCCCCCCCn1cc[n+](C)c1.O=S(=O)([N-]S(=O)(=O)C(F)(F)F)C(F)(F)F
4. CCCCCC[n+]1ccn(C)c1.O=S(=O)([N-]S(=O)(=O)C(F)(F)F)C(F)(F)F
5. CCCC[n+]1ccn(C)c1.O=S(=O)([N-]S(=O)(=O)C(F)(F)F)C(F)(F)F
6. CCCCCCCn1cc[n+](C)c1.O=S(=O)([N-]S(=O)(=O)C(F)(F)F)C(F)(F)F

Reply:
[504.8, 595.6, 820.2, 629.4, 565.9, 659.2]
